target: Oxytocin receptor (Homo sapiens); test: Displacement of [3H]OT from human OT receptor expressed in HEK cells
Sequence (P30559 whole entry): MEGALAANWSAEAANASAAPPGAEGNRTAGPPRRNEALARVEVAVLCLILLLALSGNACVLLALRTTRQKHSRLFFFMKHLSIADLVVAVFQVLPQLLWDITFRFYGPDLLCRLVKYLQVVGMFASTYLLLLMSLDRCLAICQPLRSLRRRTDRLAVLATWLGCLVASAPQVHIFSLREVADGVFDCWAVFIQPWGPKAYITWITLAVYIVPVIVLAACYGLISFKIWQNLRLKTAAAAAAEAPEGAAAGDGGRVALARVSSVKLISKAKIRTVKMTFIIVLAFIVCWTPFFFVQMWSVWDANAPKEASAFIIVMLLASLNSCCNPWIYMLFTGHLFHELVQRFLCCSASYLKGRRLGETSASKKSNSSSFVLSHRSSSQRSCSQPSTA
Bridge positions count the residues as written; N and C are the ends. Square brackets hold non-standard residues; d marks the D form. Peptide text beside a SMILES is read from it. Aib = CC(C)(N)C(=O)O
Friendly reminder: IC50 below 500 nM is MET, at or above is NOT MET.

compound	assigned.label
CC[C@H](C)[C@@H]1NC(=O)[C@H](Cc2ccc(O)cc2)NC(=O)[C@@H](N)CSSC[C@@H](C(=O)N2Cc3ccccc3C[C@@H]2C(=O)N[C@@H](CC(C)C)C(=O)NCC(N)=O)NC(=O)[C@H](CC(N)=O)NC(=O)[C@H](CCC(N)=O)NC1=O	NOT MET
CC[C@H](C)[C@@H]1NC(=O)[C@H](Cc2ccc(O)cc2)NC(=O)[C@@H](N)CSSC[C@@H](C(=O)N2Cc3ccccc3C[C@H]2C(=O)N[C@@H](CC(C)C)C(=O)NCC(N)=O)NC(=O)[C@H](CC(N)=O)NC(=O)[C@H](CCC(N)=O)NC1=O	MET
CCOc1ccc(CC2NC(=O)CCSSC[C@@H](C(=O)N[C@H](C(=O)N[C@@H](CC(C)C)C(=O)NCC(N)=O)C(C)(C)C)NC(=O)[C@H](CC(N)=O)NC(=O)[C@H](CCC(N)=O)NC(=O)[C@H]([C@@H](C)CC)NC2=O)cc1 (stereo in doubt)	NOT MET
CCOc1ccc(CC2NC(=O)CCSSC[C@@H](C(=O)N3Cc4ccccc4C[C@H]3C(=O)N[C@@H](CC(C)C)C(=O)NCC(N)=O)NC(=O)[C@H](CC(N)=O)NC(=O)[C@H](CCC(N)=O)NC(=O)[C@H]([C@@H](C)CC)NC2=O)cc1 (stereo in doubt)	MET
CC[C@H](C)[C@@H]1NC(=O)[C@H](Cc2ccc(O)cc2)NC(=O)CCSSC[C@@H](C(=O)N2Cc3ccccc3C[C@H]2C(=O)N[C@@H](CC(C)C)C(=O)NCC(N)=O)NC(=O)[C@H](CC(N)=O)NC(=O)[C@H](CCC(N)=O)NC1=O	MET
CC(C)C[C@H](NC(=O)[C@@H](NC(=O)[C@@H]1CSSC[C@H](N)C(=O)N[C@@H](Cc2ccc(O)cc2)C(=O)N[C@@H](C(C)(C)C)C(=O)N[C@@H](CCC(N)=O)C(=O)N[C@@H](CC(N)=O)C(=O)N1)C(C)(C)C)C(=O)NCC(N)=O	NOT MET
CCOc1ccc(CC2NC(=O)CCSSC[C@@H](C(=O)N3Cc4ccccc4C[C@@H]3C(=O)N[C@@H](CC(C)C)C(=O)NC(C)(C)C(N)=O)NC(=O)[C@H](CC(N)=O)NC(=O)[C@H](CCC(N)=O)NC(=O)[C@H]([C@@H](C)CC)NC2=O)cc1 (stereo in doubt)	MET
CC[C@H](C)[C@@H]1NC(=O)[C@H](Cc2ccc(O)cc2)NC(=O)[C@@H](N)CSSC[C@@H](C(=O)N[C@H](C(=O)N[C@@H](CC(C)C)C(=O)NCC(N)=O)C(C)(C)C)NC(=O)[C@H](CC(N)=O)NC(=O)[C@H](CCC(N)=O)NC1=O	NOT MET
CCOc1ccc(CC2NC(=O)CCSSC[C@@H](C(=O)N3Cc4ccccc4C[C@@H]3C(=O)N[C@@H](CC(C)C)C(=O)N3Cc4ccccc4C[C@@H]3C(N)=O)NC(=O)[C@H](CC(N)=O)NC(=O)[C@H](CCC(N)=O)NC(=O)[C@H]([C@@H](C)CC)NC2=O)cc1 (stereo in doubt)	MET
CCOc1ccc(CC2NC(=O)CCSSC[C@@H](C(=O)N3CCCC[C@H]3C(=O)N[C@@H](CC(C)C)C(=O)NCC(N)=O)NC(=O)[C@H](CC(N)=O)NC(=O)[C@H](CCC(N)=O)NC(=O)[C@H]([C@@H](C)CC)NC2=O)cc1 (stereo in doubt)	MET
CCOc1ccc(CC2NC(=O)CCSSC[C@@H](C(=O)N[C@H](C(=O)N[C@@H](CC(C)C)C(=O)NCC(N)=O)C(C)(C)C)NC(=O)[C@H](CC(N)=O)NC(=O)[C@H](CCC(N)=O)NC(=O)[C@H](C(C)(C)C)NC2=O)cc1 (stereo in doubt)	NOT MET
CC[C@H](C)[C@@H]1NC(=O)[C@H](Cc2ccc(O)cc2)NC(=O)[C@@H](N)CSSC[C@@H](C(=O)NC(C)(C)C(=O)N[C@@H](CC(C)C)C(=O)NCC(N)=O)NC(=O)[C@H](CC(N)=O)NC(=O)[C@H](CCC(N)=O)NC1=O (H-CYIQNC[Aib]LG-NH2; disulfide 1-6)	MET
CCOc1ccc(CC2NC(=O)CCSSC[C@@H](C(=O)N3Cc4ccccc4C[C@@H]3C(=O)N[C@@H](CC(C)C)C(=O)NCC(N)=O)NC(=O)[C@H](CC(N)=O)NC(=O)[C@H](CCC(N)=O)NC(=O)[C@H]([C@@H](C)CC)NC2=O)cc1 (stereo in doubt)	MET
CC[C@H](C)[C@@H]1NC(=O)[C@H](Cc2ccc(O)cc2)NC(=O)CCSSC[C@@H](C(=O)N2Cc3ccccc3C[C@@H]2C(=O)N[C@@H](CC(C)C)C(=O)NCC(N)=O)NC(=O)[C@H](CC(N)=O)NC(=O)[C@H](CCC(N)=O)NC1=O	MET

Reference source for all entries: ChEMBL document CHEMBL1147207
